Taken from PubChem BioAssay (NCI).

Reported TGI by item:
Test system: U251 CNS
Assay: NCI tumour cell line growth inhibition, 48 h

The cases that follow already have their TGI on record.
Compound	Readout value
N#CC12C(=O)N=C(N)C1(C#N)C(c1ccco1)NC1=C2CCCC1 (stereo unspecified)	> 100 µM
CC(=O)OC1=CC(n2cc(F)c(=O)[nH]c2=O)OC(C)C1=O (stereo unspecified)	> 100 µM
CCCCCCCC(=O)SCC/C=C/[C@@H]1CC(=O)NCc2cc(ccn2)C2=N[C@@](C)(CS2)C(=O)N[C@@H](C(C)C)C(=O)O1	0.309 µM
Fc1cc2[nH]ncc2c2c3c(c(-c4cn[nH]c4)nc12)CCCC3	13.4 µM

Asked: Please give the documented TGI of "N#CC(C#N)=CNC(N)=S"
Given back: > 100 µM

Asked: Let me know recorded TGI for Nc1ncnc2c1nnn2C1OC(CO)C(O)C1O (stereo unspecified) , thanks.
Given back: 37.8 µM

----------
Overview of reported TGI across a group of molecules:
Tested on: LOX IMVI melanoma
Assay: NCI tumour cell line growth inhibition, 48 h

Molecule	Readout value
CC1(C)CCCC2OC2CCC(C)(C)C1=O (stereo unspecified)	> 100 µM
N=C(N)SCc1ccc2c(c1)Sc1ccccc1O2	60.4 µM

Asked: Name the value of TGI reported for CC1=CC(O)(c2ccc(-c3ccccc3Cl)cc2)OC1=O (stereo unspecified) when tested on LOX IMVI melanoma.
Given back: > 100 µM

Asked: Give measured TGI for "COc1cccc(CCCNC(=O)Cc2cc(OC)c(OC)cc2CO)c1" (LOX IMVI melanoma).
Given back: > 100 µM

Asked: State measured TGI of the molecule N#CC12C(=O)N=C(N)C1(C#N)C(c1ccco1)NC1=C2CCCC1 (stereo unspecified) with LOX IMVI melanoma.
Given back: > 100 µM

Asked: Fill in: TGI on LOX IMVI melanoma, entry "CCCCCCOc1ccc(C(=O)NOC)cc1"
Given back: > 100 µM

Asked: Write down measured TGI (LOX IMVI melanoma) for this molecule. "CN1CSC(=S)N(c2c3ccccc3nc3ccc(Br)cc23)C1"
Given back: > 53.4 µM

Asked: Would you please give the reported TGI of CC1CCC(C(=O)O)(C(Br)C(=O)O)CC1 (stereo unspecified) with LOX IMVI melanoma?
Given back: > 100 µM

Asked: System LOX IMVI melanoma. Read-out TGI. Item Cc1ccccc1S(=O)(=O)OC1NS(=O)(=O)c2ccccc21 (stereo unspecified) . Report value.
Given back: > 100 µM

Asked: Fill: TGI (LOX IMVI melanoma) for this molecule COc1ncnc(NS(=O)(=O)c2ccc(N=C3C(=O)N(CN4CCN(c5c(F)cc6c(=O)c(C(=O)O)cn(C7CC7)c6c5OC)CC4C)c4ccc(Cl)cc43)cc2)c1OC (stereo unspecified)
Given back: 15.6 µM

Asked: Output reported TGI of the molecule "NS(=O)(=O)c1cc2c(cc1Cl)NC(CCC(=O)O)=NS2(=O)=O" on LOX IMVI melanoma.
Given back: > 100 µM

----------
Test system: PC-3 prostate
Test: NCI tumour cell line growth inhibition, 48 h
Readout: TGI

Check out these entries, answers already filled in.
Compound	Target system	TGI
COc1ccc(/C=C(/C#N)n2nnc3cccc(F)c32)cc1	PC-3 prostate	> 100 µM
CC(C)(C)OC(=O)N[C@H]1CC2(C=C(Cl)C(=O)C(Cl)=C2)OC1=O	PC-3 prostate	32.1 µM
OCc1ccc(-c2ccc(-c3ccc(CO)s3)o2)s1	PC-3 prostate	> 100 µM

Asked: Write down TGI measured for item O=c1c2sccc2n(CC2COc3ccccc3O2)c(=O)n1O (stereo not given)
Given back: > 100 µM

Asked: Provide TGI value for the following compound: "O=[N+]([O-])c1ccc(Oc2c(Cl)cc(S(=O)(=O)/N=C(\NO)Nc3ccc(Cl)cc3)cc2Cl)cc1"
Given back: 22.2 µM

Asked: Fill in TGI for record "COc1cc(/C=C/c2cc(O)c(C(C)=O)c(O)c2)cc2c1O[C@]1(C)CC[C@@H](O)C(C)(C)[C@H]1C2"
Given back: > 100 µM

Asked: Determine from records and report TGI for "O=c1c2sc(=S)n(-c3ccc(F)cc3)c2ncn1/N=C/c1ccc(F)cc1F"
Given back: > 100 µM

Asked: Give the reported TGI for this compound. "CCN(CC)CCn1c(=O)c2cccnc2n2c3c(=O)n(C)c(=O)n(C)c3nc12"
Given back: > 100 µM

Asked: For "COc1cc2c3c(n(C)c(=O)c2cc1OC)-c1cc2c(cc1/C3=C\CCCN)OCO2" , write its TGI.
Given back: 31.9 µM

Asked: Give me measured TGI, please, for this compound: "CS(=O)(=O)OCC(CCl)(CCl)CCl"
Given back: > 100 µM
